Entries and their pIC50 values follow.
- Test system: PC-3 human prostatic cancer cells
- test.details: Alamar Blue cell proliferation assay, PC3
- Assay type: cell-based
- experimental.conditions: PC3, Table 2, read-out: AB: PC3 IC50
- Procedure: A representative cell-proliferation assay protocol using Alamar Blue dye (stored at 4° C., use 20 ul per well) is described hereafter. a. Split and trypsinize cells. b. Count cells using hemocytometer. c. Plate 4,000-5,000 cells per well in 100 μl of medium and seed into a 96-well plate according to the following plate layout. Add cell culture medium only to wells B10 to B12. […] h. Record fluorescence at an excitation wavelength of 544 nm and emission wavelength of 590 nm using a microplate reader. […]
pIC50: −log10 of the molar value.

query.smiles | pIC50
NS(=O)(=O)c1ccc(-c2ccc(/C=C3\SC(=O)NC3=O)o2)cc1 | < 5.00
O=C1NC(=O)/C(=C\c2ccc(-c3ccc(C(=O)O)cc3)o2)S1 | < 4.52
CN1CCCN(C(=O)c2cccc(-c3ccc(/C=C4/SC(=O)NC4=O)o3)c2)CC1 | < 4.52

Exercise: Using the record for `CN1CCCN(C(=O)c2ccc(-c3ccc(/C=C4/SC(=O)NC4=O)o3)cc2)CC1` , report its pIC50.
Key: < 4.52

----------
- System: MDAMB453
- test.details: Alamar Blue cell proliferation assay, MDAMB453
- Assay type: cell-based
- experimental.conditions: Homo sapiens, MDA-MB-453, MDAMB453, Table 6, read-out: AB: MDAMB453 IC50
- Protocol: A representative cell-proliferation assay protocol using Alamar Blue dye (stored at 4° C., use 20 ul per well) is described hereafter. a. Split and trypsinize cells. b. Count cells using hemocytometer. c. Plate 4,000-5,000 cells per well in 100 μl of medium and seed into a 96-well plate according to the following plate layout. Add cell culture medium only to wells B10 to B12. […] h. Record fluorescence at an excitation wavelength of 544 nm and emission wavelength of 590 nm using a microplate reader. […]
recorded.endpoint: IC50 (µM)

query.smiles | assay.system | recorded.endpoint | test.result
C[C@H](Nc1cncc(-c2csc(/C=C3\SC(=O)NC3=O)c2)n1)C1CC1 | MDAMB453 | IC50 | 19.2

(a) C[C@H](Nc1cncc(-c2cccc(/C=C3\SC(=O)NC3=O)c2)n1)C1CC1
(b) O=C1NC(=O)/C(=C/c2cc(-c3cncc(N4CCCNCC4)n3)cs2)S1
Exercise: Please tell me which of the two, a or b , has the higher reported IC50 value. Refer to your chosen entry by its label in the reply.
Key: b
(b: 27.7 µM, a: 7.21 µM)

----------
- Test system: BxPC3
- test.details: Alamar Blue cell proliferation assay, BxPC3
- Format: cell-based
- experimental.conditions: Homo sapiens, BXPC-3, BxPC3, Table 5, read-out: AB: BxPC3 IC50
recorded.endpoint: IC50 (µM)

query.smiles | unit.text | test.result
O=C1NC(=O)/C(=C\c2ccc(F)c(-c3cncc(N4CCCN(C(=O)c5ccccc5F)CC4)n3)c2)S1 | µM | 20
Cc1ccc(-c2cncc(N3CCCN(C)CC3)n2)cc1/C=C1\SC(=S)NC1=O | µM | 16.3
COC(=O)N1CCCN(c2cncc(-c3cc(/C=C4/SC(=O)NC4=O)ccc3F)n2)CC1 | µM | 18.9

(A) CC(C)(C)CC(=O)N1CCCN(c2cncc(-c3cc(/C=C4/SC(=O)NC4=O)ccc3F)n2)CC1
(B) CN1CCCN(c2cncc(-c3cc(/C=C4\SC(=O)NC4=O)ccc3F)n2)CC1
Exercise: Please tell me which of the two, A or B , has the higher reported IC50 value. Refer to your chosen entry by its label in the reply.
Key: A

----------
- assay.system: recombinant PIM-1 (Homo sapiens, UniProt P11309)
- Sequence (P11309 whole entry): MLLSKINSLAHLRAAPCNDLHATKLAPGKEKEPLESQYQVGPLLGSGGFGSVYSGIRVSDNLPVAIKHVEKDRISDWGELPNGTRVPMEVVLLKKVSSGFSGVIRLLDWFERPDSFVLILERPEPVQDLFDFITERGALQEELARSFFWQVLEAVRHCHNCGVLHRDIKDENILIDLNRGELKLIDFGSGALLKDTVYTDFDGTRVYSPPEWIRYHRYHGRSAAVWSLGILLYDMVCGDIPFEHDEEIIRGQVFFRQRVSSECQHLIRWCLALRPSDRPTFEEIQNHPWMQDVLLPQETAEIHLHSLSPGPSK
- test.details: PIM-1 assay (33P-ATP filter plate)
- Type: biochemical
- experimental.conditions: Table 3; read-out: PIM1: IC50
pIC50: −log10 of the molar value.
recorded.endpoint: pIC50

query.smiles | test.result
O=C1NC(=O)/C(=C\c2ccc(-c3ccc(C(=O)O)cc3)o2)N1 | 6.09

(A) CN1C(=O)NC(=O)/C1=C\c1ccc(-c2ccc(C(=O)O)cc2)o1
(B) NS(=O)(=O)c1ccc(-c2ccc(/C=C3\NC(=O)NC3=O)o2)cc1
Exercise: I'm curious, which of these has a smaller pIC50 number: A or B ? Refer to your chosen entry by its label in the reply.
Key: A

----------
- Test system: K-562
- test.details: Alamar Blue cell proliferation assay, K-562
- Assay type: cell-based
- experimental.conditions: Homo sapiens, K562, K-562, Table 1, read-out: AB: K-562 IC50
Entries and their IC50 values follow.

Solved cases below.
compound | assay.system | recorded.endpoint | test.result
O=C1NC(=S)S/C1=C\c1ccc(-c2ccc(C(=O)NCc3ccccn3)cc2)o1 | K-562 | IC50 | > 10 µM
CCN1CCCC1CNC(=O)c1ccc(-c2ccc(/C=C3\SC(=S)NC3=O)o2)cc1 (centres unmarked) | K-562 | IC50 | > 10 µM
Cn1cncc1CNC(=O)c1ccc(-c2ccc(/C=C3\SC(=S)NC3=O)o2)cc1 | K-562 | IC50 | > 10 µM
CCN(CC)CCNC(=O)c1ccc(-c2ccc(/C=C3\SC(=S)NC3=O)o2)cc1 | K-562 | IC50 | > 10 µM
CC(C)N1CCN(C(=O)c2ccc(-c3ccc(/C=C4\SC(=S)NC4=O)o3)cc2)CC1 | K-562 | IC50 | > 10 µM
O=C1NC(=S)S/C1=C\c1ccc(-c2cccc(C(=O)NN3CCN(CCO)CC3)c2)o1 | K-562 | IC50 | > 10 µM

Exercise: Using the record for `CN1CCCN(C(=O)c2ccc(-c3ccc(/C=C4\SC(=S)NC4=O)o3)cc2)CC1` , report its IC50.
Key: > 10 µM

Exercise: What would you report for `NCCN1CCN(C(=O)c2ccc(-c3ccc(/C=C4\SC(=S)NC4=O)o3)cc2)CC1` ?
Key: > 10 µM

----------
- System: K-562
- test.details: Alamar Blue cell proliferation assay, K-562
- Format: cell-based
- experimental.conditions: Homo sapiens, K562, K-562, Table 1, read-out: AB: K-562 IC50
pIC50: −log10 of the molar value.
recorded.endpoint: pIC50

Exercise: Using the record for `CN1CCCN(C(=O)c2cccc(-c3ccc(/C=C4\SC(=S)NC4=O)o3)c2)CC1` , report its pIC50.
Key: 5.54

Exercise: What would you report for `COCCNC(=O)c1ccc(Cl)c(-c2ccc(/C=C3\SC(=S)NC3=O)o2)c1` ?
Key: 5.12

Exercise: What would you report for `O=C1NC(=S)S/C1=C\c1ccc(-c2cccc(C(=O)NCCN3CCCC3)c2)o1` ?
Key: < 5.00

----------
- assay.system: recombinant human PIM2 (Homo sapiens, UniProt Q9P1W9)
- Sequence (Q9P1W9 whole entry): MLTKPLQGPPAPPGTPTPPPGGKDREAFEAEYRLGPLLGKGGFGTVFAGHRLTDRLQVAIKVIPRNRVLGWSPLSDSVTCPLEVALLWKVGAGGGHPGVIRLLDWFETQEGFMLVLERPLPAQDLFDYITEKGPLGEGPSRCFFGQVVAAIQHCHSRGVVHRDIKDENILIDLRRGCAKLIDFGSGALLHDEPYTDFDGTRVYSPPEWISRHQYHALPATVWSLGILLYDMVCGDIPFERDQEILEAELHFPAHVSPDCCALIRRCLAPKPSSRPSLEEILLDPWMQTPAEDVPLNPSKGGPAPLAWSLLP
- test.details: PIM-2 assay (33P-ATP filter plate)
- Assay type: biochemical
- experimental.conditions: Table 1
recorded.endpoint: IC50 (nM)

(I) CN1CCCN(C(=O)c2cccc(-c3ccc(/C=C4\SC(=S)NC4=O)o3)c2)CC1
(II) O=C1NC(=S)S/C1=C\c1ccc(-c2cccc(C(=O)NCCN3CCCC3)c2)o1
Exercise: Please tell me which of the two, I or II , has the higher reported IC50 value. Refer to your chosen entry by its label in the reply.
Key: II

----------
- assay.system: recombinant human CK2 (Homo sapiens)
- Construct: purchased Upstate
- Sequence (P68400 whole entry): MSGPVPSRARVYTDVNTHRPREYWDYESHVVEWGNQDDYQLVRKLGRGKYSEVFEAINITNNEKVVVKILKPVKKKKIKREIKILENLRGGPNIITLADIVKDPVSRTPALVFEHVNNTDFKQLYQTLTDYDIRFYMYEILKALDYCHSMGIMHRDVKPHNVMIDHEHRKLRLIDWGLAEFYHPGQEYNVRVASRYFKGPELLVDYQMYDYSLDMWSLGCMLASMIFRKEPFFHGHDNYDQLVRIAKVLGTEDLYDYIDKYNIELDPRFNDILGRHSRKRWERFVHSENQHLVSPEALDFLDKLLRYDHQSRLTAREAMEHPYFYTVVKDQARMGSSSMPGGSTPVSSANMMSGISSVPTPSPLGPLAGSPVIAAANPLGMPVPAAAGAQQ
- Sequence (P67870 whole entry partner): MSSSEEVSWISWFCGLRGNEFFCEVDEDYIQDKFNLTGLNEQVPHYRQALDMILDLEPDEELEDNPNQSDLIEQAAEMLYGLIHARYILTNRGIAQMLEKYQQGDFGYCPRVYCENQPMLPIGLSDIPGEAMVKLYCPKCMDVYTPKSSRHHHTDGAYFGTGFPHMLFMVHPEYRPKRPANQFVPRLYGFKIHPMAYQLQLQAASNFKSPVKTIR
- test.details: CK2 assay (cell-free, 33P-ATP filter plate)
- Type: biochemical
- experimental.conditions: Table 1
recorded.endpoint: IC50 (nM)

molecule | IC50 (nM)
O=C1NC(=S)S/C1=C\c1ccc(-c2ccccc2)o1 | 4
CN1CCCCC1CNC(=O)c1ccc(-c2ccc(/C=C3\SC(=S)NC3=O)o2)cc1 (centres unmarked) | 471
O=C1NC(=S)S/C1=C\c1ccc(-c2cccc(C(=O)Nn3cnnc3)c2)o1 | 281
O=C1NC(=S)S/C1=C\c1ccc(-c2cccc(C(=O)NNc3ccnc4cc(Cl)ccc34)c2)o1 | 266
CCNC(=O)c1cccc(-c2ccc(/C=C3\SC(=S)NC3=O)o2)c1 | 264
O=C1NC(=S)S/C1=C\c1ccc(-c2cc(C(=O)O)ccc2Cl)o1 | 27

(P) O=C1NC(=S)S/C1=C\c1ccc(-c2cccc(C(=O)N3CCCNCC3)c2)o1
(Q) CCN(CC)CCNC(=O)c1ccc(Cl)c(-c2ccc(/C=C3\SC(=S)NC3=O)o2)c1
(R) NS(=O)(=O)c1ccc(-c2ccc(/C=C3\SC(=S)NC3=O)o2)cc1
(S) COCCNC(=O)c1cc(-c2ccc(/C=C3\SC(=S)NC3=O)o2)ccc1Cl
Exercise: Reorder: IC50, max to min. Field: ranking. Enter the labels in the order requested.
Key: P, S, R, Q

----------
- assay.system: recombinant PIM-1 (Homo sapiens)
- test.details: PIM-1 assay (33P-ATP filter plate)
- Assay type: biochemical
- experimental.conditions: Table 1; read-out: PIM1: IC50
pIC50: −log10 of the molar value.
recorded.endpoint: pIC50

Solved cases below.
molecule | pIC50
O=C1NC(=S)S/C1=C\c1ccc(-c2cccc(C(=O)NNc3ccnc4cc(Cl)ccc34)c2)o1 | 6.84
O=C1NC(=S)S/C1=C\c1ccc(-c2cccc(C(=O)NN3CCN(CCO)CC3)c2)o1 | 6.79
CC(C)N1CCN(C(=O)c2ccc(-c3ccc(/C=C4\SC(=S)NC4=O)o3)cc2)CC1 | 7.17
CCN(CC)CCNC(=O)c1ccc(-c2ccc(/C=C3\SC(=S)NC3=O)o2)cc1 | 8.22
O=C1NC(=S)S/C1=C\c1ccc(-c2ccccc2)o1 | 7.23
O=C1NC(=S)S/C1=C\c1ccc(-c2ccc(Cl)c(C(=O)O)c2)o1 | 6.65
COCCNC(=O)c1cccc(-c2ccc(/C=C3\SC(=S)NC3=O)o2)c1 | 7.51
O=C1NC(=S)S/C1=C\c1ccc(-c2ccccc2C(=O)O)o1 | 5.36
NS(=O)(=O)c1ccc(-c2ccc(/C=C3\SC(=S)NC3=O)o2)cc1 | 7.82
Cc1nccn1CCNC(=O)c1ccc(-c2ccc(/C=C3\SC(=S)NC3=O)o2)cc1 | 7.85

(1) NCCN1CCN(C(=O)c2ccc(-c3ccc(/C=C4\SC(=S)NC4=O)o3)cc2)CC1
(2) CN1CCCN(C(=O)c2cccc(-c3ccc(/C=C4\SC(=S)NC4=O)o3)c2)CC1
(3) COCCNC(=O)c1ccc(Cl)c(-c2ccc(/C=C3\SC(=S)NC3=O)o2)c1
(4) O=C1NC(=S)S/C1=C\c1ccc(-c2cccc(C(=O)N3CCC[C@H]3CO)c2)o1
(5) CC(=O)NC1CCN(C(=O)c2cccc(-c3ccc(/C=C4\SC(=S)NC4=O)o3)c2)C1 (stereo not shown)
Exercise: Reorder: pIC50, max to min. Field: ranking. Enter the labels in the order requested.
Key: 3, 2, 4, 1, 5

(I) COC(=O)c1cccc(-c2ccc(CC3SC(=S)NC3=O)o2)c1 (stereo not shown)
(II) CCN1CCCC1CNC(=O)c1ccc(-c2ccc(/C=C3\SC(=S)NC3=O)o2)cc1 (stereo not shown)
(III) CCN(CC)CCNC(=O)c1cc(-c2ccc(/C=C3\SC(=S)NC3=O)o2)ccc1Cl
(IV) O=C1NC(=S)S/C1=C\c1ccc(-c2cccc(C(=O)NCCN3CCCC3)c2)o1
(V) O=C1NC(=S)S/C1=C\c1ccc(-c2cccc(C(=O)N3CC[C@H](F)C3)c2)o1
Exercise: With regard to pIC50, arrange the entries in ascending order, please. Field: ranking. Enter the labels in the order requested.
Key: IV, II, V, I, III

(I) O=C1NC(=S)S/C1=C\c1ccc(-c2ccc(C(=O)NCc3ccccn3)cc2)o1
(II) CN1CCCN(C(=O)c2ccc(-c3ccc(/C=C4\SC(=S)NC4=O)o3)cc2)CC1
(III) O=C1NC(=S)S/C1=C\c1ccc(-c2cccc(C(=O)Nn3cnnc3)c2)o1
(IV) O=C1NC(=S)S/C1=C\c1ccc(-c2cccc(C(=O)N3CCCNCC3)c2)o1
(V) O=C1NC(=S)S/C1=C\c1ccc(-c2cccc(C(=O)NN3CCCCC3)c2)o1
Exercise: Reorder: pIC50, max to min. Field: ranking. Enter the labels in the order requested.
Key: IV, II, III, V, I
(IV: 8.05, II: 7.60, III: 7.33, V: 7.07, I: 6.54)
